target: hERG channel (Homo sapiens, UniProt Q12809); test: hERG binding / selectivity over hERG; details: human; compared to MCUF-651; read-out: selectivity for GC-A vs hERG relative to MCUF-651
Sequence (Q12809 whole entry): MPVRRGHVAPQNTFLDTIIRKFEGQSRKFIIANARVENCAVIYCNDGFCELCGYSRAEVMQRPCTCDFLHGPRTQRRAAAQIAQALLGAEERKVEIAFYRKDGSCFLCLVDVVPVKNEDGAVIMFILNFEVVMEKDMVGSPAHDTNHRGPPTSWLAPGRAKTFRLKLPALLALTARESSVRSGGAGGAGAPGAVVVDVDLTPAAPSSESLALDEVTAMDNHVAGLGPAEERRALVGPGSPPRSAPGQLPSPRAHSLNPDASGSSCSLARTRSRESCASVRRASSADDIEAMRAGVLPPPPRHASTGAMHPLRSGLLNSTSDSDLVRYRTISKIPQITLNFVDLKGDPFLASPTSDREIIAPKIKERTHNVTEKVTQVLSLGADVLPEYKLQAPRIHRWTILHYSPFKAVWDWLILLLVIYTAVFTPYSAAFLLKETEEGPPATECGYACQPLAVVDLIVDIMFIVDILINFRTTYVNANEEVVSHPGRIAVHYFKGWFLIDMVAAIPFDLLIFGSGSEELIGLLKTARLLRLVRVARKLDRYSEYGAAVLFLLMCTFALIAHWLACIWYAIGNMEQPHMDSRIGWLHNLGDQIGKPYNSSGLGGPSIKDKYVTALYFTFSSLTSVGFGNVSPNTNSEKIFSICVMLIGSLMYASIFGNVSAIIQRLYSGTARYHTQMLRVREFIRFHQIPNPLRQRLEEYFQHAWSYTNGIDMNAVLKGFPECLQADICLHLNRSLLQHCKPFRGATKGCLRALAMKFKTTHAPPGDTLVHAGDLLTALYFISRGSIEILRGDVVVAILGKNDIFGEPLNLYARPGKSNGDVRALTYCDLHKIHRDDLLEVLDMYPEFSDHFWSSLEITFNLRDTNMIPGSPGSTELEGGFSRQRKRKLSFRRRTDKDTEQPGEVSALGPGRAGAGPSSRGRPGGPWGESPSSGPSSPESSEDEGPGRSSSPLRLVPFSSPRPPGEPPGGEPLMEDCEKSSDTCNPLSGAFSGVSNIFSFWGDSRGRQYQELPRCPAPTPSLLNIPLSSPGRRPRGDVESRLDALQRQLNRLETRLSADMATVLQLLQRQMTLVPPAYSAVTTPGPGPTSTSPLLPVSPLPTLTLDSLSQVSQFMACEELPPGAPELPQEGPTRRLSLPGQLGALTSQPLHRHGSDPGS
attribute_measured: selectivity ratio

Value wanted: selectivity ratio (hERG channel (Homo sapiens, UniProt Q12809)) of entry CN1CC(N2CCCC(C(=O)Nc3nc4c(F)cc(F)cc4s3)C2)C1 (stereo not shown) 50 to 100

====

molecular target: human GC-A (Homo sapiens); construct: host or cells: HEK293; experiment: cGMP potentiation (HTRF) in human GC-A overexpressing HEK293 cells with EC20 ANP; format: cell-based; conditions: Table 2, Formula (I-b); cGMP potentiation, ANP at EC20; read-out: EC50
attribute_measured: EC50

Which measured EC50 value corresponds to CN(C)CCN1CC(C(=O)Nc2nc3c(F)cc(F)cc3s2)CCC1=O (stereo not shown) ? > 5 µM

====

target: human GC-A (Homo sapiens); construct: host or cells: HEK293; experiment: cGMP potentiation (HTRF) in human GC-A overexpressing HEK293 cells with EC20 ANP; format: cell-based; conditions: HEK293; Table 1; 100% = saturating ANP (10 nM), 0% = EC20 ANP; read-out: Emax (%)
// reported Emax for each item listed
Expressed in %, but write only the number.

Some solved cases for reference:
• CN1CCCC(N2CCCC(C(=O)Nc3nc4c(F)cc(F)cc4s3)C2)C1 (stereo not drawn) = 97
• O=C(Nc1nc2c(F)cc(F)cc2s1)C1CCCN(CCN2CCCC2=O)C1 (stereo not drawn) = 105

// moving on: another record for Emax
Which measured Emax value corresponds to CN1CCC(N2CCCC(C(=O)Nc3nc4c(F)cc(F)cc4s3)C2)C1 (stereo not drawn) ? 89

====

target: human GC-A (Homo sapiens); construct: host or cells: HEK293; assay: cGMP potentiation (HTRF) in human GC-A overexpressing HEK293 cells with EC20 ANP; type: cell-based; settings: Table 1, Formula (I-a); cGMP potentiation, ANP at EC20; read-out: EC50
attribute_measured: EC50

- O=C(Nc1nc2c(F)cc(F)cc2s1)C1CCCN(C2CNC2)C1 (stereo not shown) [JUF-S4-029A]: 0.08 to 0.2 µM
- CN1CCC(N2CCCC(C(=O)Nc3nc4c(F)cc(F)cc4s3)C2)C1 (stereo not shown): 0.13 µM
- O=C(Nc1nc2c(F)cc(F)cc2s1)C1CCCN(c2cccnc2)C1 (stereo not shown): 2.5 to 7.4 µM

Which measured EC50 value corresponds to Cn1cc(N2CCCC(C(=O)Nc3nc4c(F)cc(F)cc4s3)C2)cn1 (stereo not shown) ? 2.1 to 4.9 µM

====

target: human GC-A (Homo sapiens, UniProt P16066); assay: cGMP potentiation (HTRF) in human GC-A overexpressing HEK293 cells with EC20 ANP; settings: Table 3, additional compounds; modulation of pGC-A
Sequence (P16066 33-1061): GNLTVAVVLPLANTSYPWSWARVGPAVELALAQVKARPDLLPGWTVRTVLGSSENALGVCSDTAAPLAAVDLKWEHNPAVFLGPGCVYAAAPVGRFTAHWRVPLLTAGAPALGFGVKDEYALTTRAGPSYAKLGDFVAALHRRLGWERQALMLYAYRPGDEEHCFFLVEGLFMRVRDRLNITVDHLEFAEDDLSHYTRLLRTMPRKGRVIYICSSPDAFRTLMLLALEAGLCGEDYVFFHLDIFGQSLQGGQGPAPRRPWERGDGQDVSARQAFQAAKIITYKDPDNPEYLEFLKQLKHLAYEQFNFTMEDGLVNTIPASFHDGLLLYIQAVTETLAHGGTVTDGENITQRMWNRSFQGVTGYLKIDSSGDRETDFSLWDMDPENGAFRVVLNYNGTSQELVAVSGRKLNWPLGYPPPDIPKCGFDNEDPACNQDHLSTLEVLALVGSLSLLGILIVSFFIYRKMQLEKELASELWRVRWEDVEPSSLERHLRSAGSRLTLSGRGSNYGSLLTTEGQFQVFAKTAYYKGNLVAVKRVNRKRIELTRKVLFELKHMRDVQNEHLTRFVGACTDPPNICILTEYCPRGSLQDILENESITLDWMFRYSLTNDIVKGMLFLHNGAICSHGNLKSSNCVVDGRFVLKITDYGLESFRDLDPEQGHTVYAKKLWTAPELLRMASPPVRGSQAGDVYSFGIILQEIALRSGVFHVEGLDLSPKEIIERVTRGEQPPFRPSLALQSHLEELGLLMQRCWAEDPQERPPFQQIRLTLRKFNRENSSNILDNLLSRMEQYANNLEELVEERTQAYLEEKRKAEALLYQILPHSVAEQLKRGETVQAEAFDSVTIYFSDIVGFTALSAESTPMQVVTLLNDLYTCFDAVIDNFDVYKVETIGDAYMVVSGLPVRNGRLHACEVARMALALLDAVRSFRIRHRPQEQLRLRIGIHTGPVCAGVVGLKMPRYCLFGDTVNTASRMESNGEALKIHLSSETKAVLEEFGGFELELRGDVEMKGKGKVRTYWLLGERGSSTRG
Sequence (P01160 124-151 partner limits assumed): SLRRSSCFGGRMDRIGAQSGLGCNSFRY
pIC50: −log10 of the molar value.
// reported pIC50 for each item listed

- COc1cc(F)c2nc(NC(=O)C3CCCN(CCN(C)C)C3)sc2c1 (stereo not shown): 5.17

Which measured pIC50 value corresponds to Cc1cc(F)c2nc(NC(=O)C3CCCN(CCN(C)C)C3)sc2c1 (stereo not shown) ? 6.05

Which measured pIC50 value corresponds to O=C(Nc1nc2c(F)cc(F)cc2s1)C1CNCCN1C(=O)OCc1ccccc1 (stereo not shown) [JUF-S11-002A] ? < 5.30
